The reported numbers originate from ChEMBL document CHEMBL1201862.

Test system: SNB-19
run description: NCI tumour cell line growth inhibition, 48 h
Calls of active or inactive are those of the source. No stated cut-off is given here; in the data, active = GI50 up to about 1.1 µM and inactive = higher. Where a SMILES comes first, the peptide text is derived from it. The star is where a group is joined. OSu = O=C1CCC(=O)N1O*; OBn = c1ccc(CO*)cc1; Bn = c1ccc(C*)cc1
measured attribute: GI50

compound=Cc1ccc2[nH]/c(=N/S(=O)(=O)c3cc(C)c(Cl)cc3S)[nH]c2c1 result="36.3 µM (inactive)"
compound=COc1ccc(O)c(/C(C)=N/NC(=S)N(C)C)c1 result="40.5 µM (inactive)"
compound=CC12CC3CC(C)(C1)CC(N=[N+]=[N-])(C3)C2 result="> 100 µM (inactive)"
compound=Oc1ccc2ccccc2c1/N=N/c1ccc(/N=N/c2ccccc2)cc1 result="> 100 µM (inactive)"
compound="CC1CC(=O)CC[C@@H]1OCc1ccccc1 (some centres undefined)" result="> 100 µM (inactive)"

Which value of GI50 has been reported for COc1cc(S(=O)(=O)Nc2ccc(-c3csc(/N=C\c4ccccc4O)n3)cc2)ccc1Cl in the records?
39.3 µM (inactive)

Tell me the measured GI50 of O=C(O)c1cnc(-n2[nH]c3c(c2=O)CCCC3)[nH]c1=O , please.
> 100 µM (inactive)

// GI50 lookup, key: CC(C)CC(NC(=O)C(N)CCC(=O)OCc1ccccc1)C(=O)NC(COCc1ccccc1)C(=O)NC(Cc1ccccc1)C(=O)ON1C(=O)CCC1=O (centres undefined) (H-E(OBn)LS(Bn)F-OSu; configuration not given here)
30.5 µM (inactive)

If you can, please state the reported GI50 value of OC(Cc1ccc2ccccc2n1)(C(F)(F)F)C(F)(F)F .
> 10 µM (inactive)

* * *

System: MOLT-4
run description: NCI tumour cell line growth inhibition, 48 h
Activity calls are given as the source filed them. No stated cut-off is given here; in the data, active = GI50 up to about 1.1 µM and inactive = higher.
Thanks in advance; please answer with one of these: T (active), F (inactive)

As a guide, the following entries are already answered.
compound="C1=C2C3=[N+](CCCC3)CC2Cc2ccsc21 (stereo not given)" discrete_label=F
compound=Cc1ccc(S(=O)(=O)NC(=O)Nc2ccc(C(=O)O)c(O)c2)cc1 discrete_label=F
compound="CC[C@@H]1/C=C/C=C/C[C@H](C)[C@@H](O)[C@](C)(O)C(=O)[C@H](C)[C@@H](O)[C@H](C)C(=O)[C@H](C)[C@@H](O)[C@H](C)/C=C/C(=O)O[C@H]2[C@@H](C)[C@@H](CC1)O[C@]1(O[C@H](CC(C)O)[C@H](C)CC1=O)[C@@H]2C (stereo not given in full)" discrete_label=F
compound=Cc1coc2c1[C@@H](O)[C@@]1(C)[C@H](CCC[C@@H]1C)C2 discrete_label=F
compound=C(=C/CCCN1O[C@@H](CCCCCCCCc2cccnc2)[C@H]2CCC[C@H]21)/CCCCCCCCCc1cccnc1 discrete_label=F
compound="CC1(C)/C(=N\\O)C2(OS(=O)(=O)C(F)(F)F)CCC1C2 (stereo not given)" discrete_label=F
compound=COc1ccc(OC)c(/C=C2/C(=O)N/C(=N\C(C)=O)N2C)c1 discrete_label=F
compound=O=[N+]([O-])c1cc(/C=N\NS(=O)(=O)c2ccc(Cl)cc2)c(O)c([N+](=O)[O-])c1 discrete_label=F

Kindly provide the recorded test outcome for the following compound: CN1CCCNCCN(CCc2ccccn2)CCCN(C)CC1
F

Hey, what did the test say about C=CCNC(=S)OCCCCCCCCCC ?
F

// param item: CN(C)S(=O)(=O)c1nc(Cl)c2nc[nH]c2n1 ; yields the recorded call
F

Assay result, entry COC(=O)c1cc2c(c3c1CC(Cc1ccccc1)C3=O)CCC2 (stereo not given) — outcome?
F

# outcome recorded in this test, key = COC(=O)[C@@H](O)[C@](O)(CCC(C)C)C(=O)O[C@@H]1C(OC)=C[C@]23CCCN2CCc2cc4c(cc2[C@H]13)OCO4
T

What classification did OC[C@H]1O[C@@H](n2cnc3c(S)ncnc32)[C@H](O)[C@@H]1O end up with in this test?
F

Please indicate how the test categorized Cc1n(CC(C)C)c2c([n+]1C)C(=O)c1ccccc1C2=O .
T

* * *

Measured GI50 accompanies every entry in the list below.
Test system: XF498
run description: NCI tumour cell line growth inhibition, 48 h
Activity calls are given as the source filed them. No stated cut-off is given here; in the data, active = GI50 up to about 1.1 µM and inactive = higher.

structure_smiles=O=C(O)c1c[nH]cc1C(=O)O result="> 100 µM (inactive)"

GI50 for Cc1c(-c2coc(-c3ccccc3)n2)c(=O)n(-c2ccccc2)n1C ?
23 µM (inactive)

Look up GI50 for this compound: C[C@@]1(CBr)C[C@@](C)(/C=C/Cl)[C@@H](Cl)C[C@H]1Cl
11.7 µM (inactive)

Fill in: GI50 of CC1=NN(C(=O)c2ccccc2O)C(=O)/C1=C/c1ccco1 is ___
25.8 µM (inactive)

* * *

System: DMS-273
run description: NCI tumour cell line growth inhibition, 48 h
Calls of active or inactive are those of the source. Rule as the data show it: active = GI50 up to about 1.1 µM and inactive = higher.
Your answer must be one of the following: active, inactive

molecule=CCOc1nc(OCC)nc(-c2cccn2-c2ccccc2)n1 discrete_label=inactive
molecule=Cc1cc2c(=O)n(-c3ccc(F)cc3)c(C)nc2c(C(=O)O)c1C discrete_label=inactive
molecule="CN(C(=O)C12C3C4C1C1C2C3C41C#N)C(C)(C)C (configuration not stated)" discrete_label=inactive

What was the test verdict on COC(=O)N/N=c1\cc(C(=O)Nc2ccc(C)c(C)c2)oc2cc(O)ccc12 ?
inactive

What was the test verdict on O=C(N/C(=C\c1c(O)ccc2ccccc12)c1nc2ccccc2[nH]1)c1ccccc1 ?
inactive

State the result this test recorded for COc1cccc(NC(=S)Nn2c(C)nc3ccccc3c2=O)c1 .
inactive

Each molecule tested received a call. Report the one for FC(F)(F)c1cccc2ns[s+]c12 .
inactive

Check the results log: what was the call for O=C(CC1C(=O)Nc2ccccc2[S+]1[O-])Nc1cc(Cl)ccc1Cl (configuration not stated) ?
inactive

* * *

Tested on: MOLT-4
run description: NCI tumour cell line growth inhibition, 48 h
Activity calls are given as the source filed them. No stated cut-off is given here; in the data, active = GI50 up to about 1.1 µM and inactive = higher.
Pick one and only one: True = active, False = inactive

Hi team, can someone confirm the assay call for O=C(c1ccccc1)c1c(C(F)(F)F)[n+]([O-])c2cc(F)c(F)cc2[n+]1[O-] ?
True

Assay outcome for O=C1OC(c2ccccc2)=N/C1=C\c1cccnc1 : what was it?
False

How was CCOP(=O)(OCC)C(c1ccc(F)cc1)N(C(=O)NC(F)(F)F)c1cccc(C(F)(F)F)c1 (stereo not given) classified in this test?
False

Hi team, can someone confirm the assay call for O=P1(C(O)/C=C/c2ccccc2)N(Cc2ccccc2)[C@H](c2ccccc2)[C@@H](c2ccccc2)N1Cc1ccccc1 (stereo not given in full) ?
False

Write down the call the test reported for this compound. Item: CC1(C)Cc2cc(C(=O)O)c3c(c2C1=O)COCC3
False

* * *

Tested on: HCT-116
run description: NCI tumour cell line growth inhibition, 48 h
Active and inactive are the calls of the source. Cut-off read from the data, not from the text of the source: active = GI50 up to about 1.1 µM and inactive = higher.
measured attribute: GI50

Reference set, count: 4
compound=CO/N=C(\C)c1cccc(Nc2c3ccccc3nc3occc23)c1 result="8.34 µM (inactive)"
compound=CCC(=O)Nc1ccc(NCC(=O)Nc2ccc(OC)cc2)cc1 result="26.1 µM (inactive)"
compound="CC(=O)Oc1c(C)c2c(O)c3c1C1=C(OCOC1=C(C)C3=O)/C(C)=C/C(C)(O)C(O)C(C)C(O)C1C(=O)OC(C(C)C1O)C(C)(O)/C=C\\C=C(C)C(=O)N2 (stereo not given)" result="57.1 µM (inactive)"
compound=COc1nc2nccnc2c(=O)n1C result="> 10 µM (inactive)"

Query (compound): Cc1cccc(N2CCN(S(=O)(=O)c3ccc(Cl)cc3)C2=N)c1C ; field requested: GI50
> 100 µM (inactive)

* * *

Tested on: DMS-114
run description: NCI tumour cell line growth inhibition, 48 h
Activity calls are given as the source filed them. Rule as the data show it: active = GI50 up to about 1.1 µM and inactive = higher.
Hi! Could you answer with just one of these? active, inactive

molecule="OCc1ccc2[n+](c1)CCC1c3ccccc3NC21 (stereo not given)" discrete_label=inactive
molecule=NNC(=O)C(=O)N/N=C(\CCCC(=O)Nc1ccc(Cl)cc1)CC(=O)c1ccc(F)cc1 discrete_label=inactive
molecule=O=C1C(Cl)=C(Cl)C(=O)N1c1ccccc1Cl discrete_label=inactive
molecule=COc1ccccc1/C=C1\C(=O)N(C(=O)c2ccc(NC(C)=O)cc2)N=C1C discrete_label=inactive
molecule=CN1CCCNCCN(CCc2ccccn2)CCCN(C)CC1 discrete_label=inactive

For this molecule, state the assay outcome: CC1=NN(C(=O)c2ccccc2O)C(=O)/C1=C/c1ccco1
active

What did this assay record as the result for CCSc1nc(COC(=O)NC)c(COC(=O)NC)n1C ?
inactive

What was the test verdict on CCOP(=O)(C/C(O)=C1\C(=O)C(CCCCNC(=O)OC(C)(C)C)N(Cc2ccccc2)C1=O)OCC (stereo not given) ?
inactive

* * *

GI50 values by entry
Tested on: OVCAR-8
run description: NCI tumour cell line growth inhibition, 48 h
The source made the active and inactive calls. No stated cut-off is given here; in the data, active = GI50 up to about 1.1 µM and inactive = higher.

Below: 3 compounds and their reported GI50.
compound=COc1ccc(OC)c(/C=C2/C(=O)N/C(=N\C(C)=O)N2C)c1 measured_attribute=GI50 result="> 100 µM (inactive)"
compound=NNC(=O)C(=O)N/N=C(\CCCC(=O)Nc1ccc(Cl)cc1)CC(=O)c1ccc(F)cc1 measured_attribute=GI50 result="> 100 µM (inactive)"
compound="O=C1C=C/C(=N\\c2ccc3c(c2)C(Br)c2ccccc2-3)O1 (stereo not given)" measured_attribute=GI50 result="72.6 µM (inactive)"

For the next question, use this compound.
Need GI50 of CCN(CC)CCn1c(C(C)(C)C)nc2ccccc21 , thanks.
> 100 µM (inactive)
